- target_or_system: TF/FVIIa (Homo sapiens)
- Sequence (P08709 213-466 limits assumed): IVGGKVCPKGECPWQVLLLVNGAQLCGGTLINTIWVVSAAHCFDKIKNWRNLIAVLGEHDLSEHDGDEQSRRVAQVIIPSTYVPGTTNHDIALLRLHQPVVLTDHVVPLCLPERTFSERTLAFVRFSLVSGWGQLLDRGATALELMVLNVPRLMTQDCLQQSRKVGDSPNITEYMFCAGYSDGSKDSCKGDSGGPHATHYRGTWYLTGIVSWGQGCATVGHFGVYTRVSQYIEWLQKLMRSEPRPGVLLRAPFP
- Sequence (P08709 61-212 limits assumed): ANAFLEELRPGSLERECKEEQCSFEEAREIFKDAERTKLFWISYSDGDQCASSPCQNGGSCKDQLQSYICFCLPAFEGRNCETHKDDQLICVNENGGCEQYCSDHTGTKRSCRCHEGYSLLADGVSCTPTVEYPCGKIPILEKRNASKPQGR
- Sequence (P13726 33-295 partner): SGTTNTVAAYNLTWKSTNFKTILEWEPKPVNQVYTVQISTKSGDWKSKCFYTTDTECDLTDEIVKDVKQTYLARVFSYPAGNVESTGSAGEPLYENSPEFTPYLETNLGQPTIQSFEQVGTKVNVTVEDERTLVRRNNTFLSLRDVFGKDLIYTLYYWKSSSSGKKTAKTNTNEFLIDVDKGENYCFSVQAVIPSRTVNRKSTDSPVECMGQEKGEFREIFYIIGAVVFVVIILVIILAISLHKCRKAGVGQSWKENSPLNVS
- test_details: TF/FVIIa inhibition (TF/FVIIa-IC50), Table 3 'Affinity to Receptors'
Structures can show the parent of a compound that is named as a salt.
IC50 reference
A number alone suffices; assume nM.

Sample answers from the record:
compound | IC50 [nM]
Cc1cc(NC(=O)N(Nc2cccc(CN)c2)c2ccccc2)ccc1N1CCCCC1=O.Cl [Compound 13, hydrochloride] | 170
Cc1cc(NC(=O)N(Nc2cccc(C(=N)N)c2)c2ccccc2)ccc1N1CCCCC1=O.Cl [Compound 11, hydrochloride] | 5.1
Cc1cc(NC(=O)NN(c2ccccc2)c2cccc(C(=N)N)c2)ccc1N1CCCCC1=O.Cl [Compound 10, hydrochloride] | 9.8

// sample N=C(N)c1cccc(NN(C(=O)Nc2ccc(N3CCOCC3=O)c(Cl)c2)c2ccccc2)c1 [Compound 4.AA, hydrochloride] , its IC50 was 27

###

melting point reference

Sample answers from the record:
compound | melting point
Cc1cc(NC(=O)NN(c2ccccc2)c2cccc(C(=N)N)c2)ccc1N1CCCCC1=O.Cl [Compound 10] | > 300 °C
Cc1cc(NC(=O)NN(c2ccccc2)c2cccc(CN)c2)ccc1N1CCCCC1=O.Cl | 172 to 173 °C
Cc1cc(NC(=O)NN(c2ccccc2)c2cccc(C#N)c2)ccc1N1CCOCC1 [5′] | 115 to 116 °C
Cc1cc(NC(=O)N(Nc2cccc(CN)c2)c2ccccc2)ccc1N1CCCCC1=O.Cl [Compound 13] | 95 to 97 °C
Cc1cc(NC(=O)NN(c2ccccc2)c2cccc(C#N)c2)ccc1N1CCCCC1=O [Compound 6] | 161 to 162 °C
N#Cc1cccc(NN(C(=O)Nc2ccc(N3CCCCC3=O)cc2)c2ccccc2)c1 [5″] | 239 to 241 °C

We next turn to a different compound, shown below.
// sample Cc1cc(NC(=O)N(Nc2cccc(C(=N)N)c2)c2ccccc2)ccc1N1CCCCC1=O.Cl [Compound 11] , its melting point was > 300 °C

###

Entries with reported IC50 on FXa (Homo sapiens, UniProt P00742)
Sequence (P00742 235-488 limits assumed): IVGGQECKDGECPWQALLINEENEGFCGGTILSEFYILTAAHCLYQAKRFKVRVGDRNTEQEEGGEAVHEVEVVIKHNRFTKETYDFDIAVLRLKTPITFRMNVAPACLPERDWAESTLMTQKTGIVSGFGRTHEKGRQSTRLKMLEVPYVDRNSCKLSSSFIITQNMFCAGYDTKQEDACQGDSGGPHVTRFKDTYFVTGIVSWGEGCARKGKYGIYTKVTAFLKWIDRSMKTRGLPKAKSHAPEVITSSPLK
Sequence (P00742 41-179 limits assumed): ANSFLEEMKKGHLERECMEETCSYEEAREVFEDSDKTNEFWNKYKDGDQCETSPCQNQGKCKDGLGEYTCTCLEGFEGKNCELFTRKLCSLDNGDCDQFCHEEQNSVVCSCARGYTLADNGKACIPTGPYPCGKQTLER
Where a name gives a salt, the structure may show the parent alone.
A number alone suffices; assume µM.

Sample answers from the record:
compound | measured_number
Cc1cc(NC(=O)N(Nc2cccc(CN)c2)c2ccccc2)ccc1N1CCCCC1=O.Cl [Compound 13, hydrochloride] | 0.13
Cc1cc(NC(=O)NN(c2ccccc2)c2cccc(C(=N)N)c2)ccc1N1CCCCC1=O.Cl [Compound 10, hydrochloride] | 0.016
Cc1cc(NC(=O)N(Nc2cccc(C(=N)N)c2)c2ccccc2)ccc1N1CCCCC1=O.Cl [Compound 11, hydrochloride] | 0.0086

Here N=C(N)c1cccc(NN(C(=O)Nc2ccc(N3CCOCC3=O)c(Cl)c2)c2ccccc2)c1 [Compound 4.AA, hydrochloride] was tested on FXa (Homo sapiens, UniProt P00742), and its IC50 came to 0.02
